# CC50 at 120 h listing for each entry below
Assay: Cytotoxicity against human MT4 cells assessed as reduction in cell viability measured after 5 days by MTT assay
Assay type: toxicity, cell-based
Settings: time 5 day
readout name: CC50 at 120 h

structure_as_smiles=Cc1cc(C#N)cc(C)c1Oc1nc(Nc2ccc(-c3cn(S(=O)(=O)n4ccnc4)nn3)cc2)nc2ccsc12 endpoint_value="140 µM"
structure_as_smiles=Cc1cc(C#N)cc(C)c1Oc1nc(Nc2ccc(-c3cn(CCN4C(=O)c5ccccc5C4=O)nn3)cc2)nc2ccsc12 endpoint_value="> 204 µM"
structure_as_smiles=Cc1cn([C@H]2C[C@H](N=[N+]=[N-])[C@@H](CO)O2)c(=O)[nH]c1=O endpoint_value="> 749 µM"
structure_as_smiles=Cc1cc(C#N)cc(C)c1Oc1nc(Nc2ccc(-c3cn(-c4ccc(C(N)=O)cc4)nn3)cc2)nc2ccsc12 endpoint_value="164 µM"
structure_as_smiles=COC(=O)c1cccc(-n2cc(-c3ccc(Nc4nc(Oc5c(C)cc(C#N)cc5C)c5sccc5n4)cc3)nn2)c1 endpoint_value="> 218 µM"
structure_as_smiles=CCOC(=O)c1ccc(Cn2cc(-c3ccc(Nc4nc(Oc5c(C)cc(C#N)cc5C)c5sccc5n4)cc3)nn2)cc1 endpoint_value="> 208 µM"
structure_as_smiles=Cc1cc(C#N)cc(C)c1Oc1nc(Nc2ccc(-c3cn(CC(=O)Nc4ccc(C(F)(F)F)cc4)nn3)cc2)nc2ccsc12 endpoint_value="> 195 µM"
structure_as_smiles=Cc1cc(C#N)cc(C)c1Oc1nc(Nc2ccc(-c3cn(Cc4ccc(Cl)cc4)nn3)cc2)nc2ccsc12 endpoint_value="> 222 µM"
